System: SK-BR-3, human breast cancer cell strain
Assay: IC50 test on tumor cells (MTT), SK-BR-3
Assay type: cell-based
Conditions: SK-BR-3, MTT, 48 h; read-out: Half Inhibitory concentrations (IC50) on human tumor cell strain growth
pIC50: −log10 of the molar value.

# compound, tested_on, pIC50
rows = [
    ("N.N.[Cl][Pt][Cl] [Cisplatine, Cisplatin, reference compound]", "SK-BR-3, human breast cancer cell strain", 4.65),
]

* * *

Experiment: Acute toxicity test, rats
Conditions: rat, in vivo, intravenous, tail vein injection
Experimental: Animal lines: healthy mice, rats. Age was 7-9 weeks. In the same batch of tests, the initial body weight of mice or rats should not be greater or less than the average body weight by 20%. Administration route: tail vein injection for both rats and mice. […] Test observation: the observation was performed for one week after administered with the drug to be tested, the time of appearance and disappearance of various toxic reactions was carefully observed and recorded for each animal. […]

# compound, LD50 at 1 week [mg/kg]
data = [
    ("CCC12CCCN3CCc4c(n(c5ccccc45)C(c4ccc(O)c5c4NC4CCC6(CC)CCCN7CCC54C76)C1)C32 (stereo not shown) [Melonine C, melonine C]", 20),
]

* * *

Assay: Acute toxicity test, mice
Conditions: mouse, in vivo, intravenous; printed on the mice line, tail vein injection; read-out: MTD (maximum tolerated dose)
assay_endpoint: MTD at 1 week

# compound, recorded_measurement
measured = [
    ("CCC12CCCN3CCc4c(n(c5ccccc45)C(c4ccc(O)c5c4NC4CCC6(CC)CCCN7CCC54C76)C1)C32 (stereo not shown)", "22 mg/kg"),
]

* * *

Tested on: HL-60, human leukemic cell strain
Test: IC50 test on tumor cells (MTT), HL-60
Assay type: cell-based
Settings: Homo sapiens; HL-60, MTT, 48 h; read-out: Half Inhibitory concentrations (IC50) on human tumor cell strain growth
Below, each entry is listed alongside its reported IC50.
assay_endpoint: IC50 (nM)

# compound, recorded_measurement
data = [
    ("CCC12CCCNC3=C(C(=O)C(=O)C=C3C3CC4(CC)CCCN5CCc6c(n3c3ccccc63)C54)C3=C1N(CCC2)CC3 (stereo not shown)", 2840),
    ("CCC12CCCN3CCc4c(n(c5ccccc45)C(c4ccc(O)c5c4NC4CCC6(CC)CCCN7CCC54C76)C1)C32 (stereo not shown)", 660),
    ("CCC12CCCN3CCc4c(n(c5ccccc45)C(c4cc5c(cc4O)N4CCCC6(CC)CCCN7CCC5(OC)C746)C1)C32 (stereo not shown)", 2530),
    ("CCC12CCCN3CCc4c(n(c5ccccc45)C(c4ccc(O)c5c4N=C4CCC6(CC)CCCN7CCC45C76)C1)C32 (stereo not shown)", 2770),
]

* * *

Assay: Solubility (qualitative description)
Type: physicochemical
Details: methanol

# compound, solubility in methanol
data = [
    ("CCC12CCCN3CCc4c(n(c5ccccc45)C(c4ccc(O)c5c4N=C4CCC6(CC)CCCN7CCC45C76)C1)C32 (stereo not shown) [Melonine D, melonine D]", "Easily soluble"),
    ("CCC12CCCNC3=C(C(=O)C(=O)C=C3C3CC4(CC)CCCN5CCc6c(n3c3ccccc63)C54)C3=C1N(CCC2)CC3 (stereo not shown) [Melonine A, melonine A]", "Easily soluble"),
    ("CCC12CCCN3CCc4c(n(c5ccccc45)C(c4cc5c(cc4O)N4CCCC6(CC)CCCN7CCC5(OC)C746)C1)C32 (stereo not shown) [Melonine B, melonine B]", "Easily soluble"),
]

Values compiled from patent US9163035B2.
